- Protocol Notes: chemical genetic growth profiling, strain panel (AID 1159580);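 further: tested at 20 µM; growth read once vehicle control cultures reached saturation at 30 °C; lower values mean less growth of the strain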
- Experimental Conditions: S. cerevisiae deletion strains, growth OD, locus YLR418C, strain cdc73
The campaign covered roughly 5,500 compounds. About 2,000 (36%) were called active. About 18% were inconclusive and are not listed. No stated cut-off is given here; in the data, active means normalized growth mostly below about 0.91 (no sharp cut-off); inconclusive means no clear call, values can overlap the other calls; inactive means mostly above about 0.92. This is one part of the list. Where a SMILES comes first, the peptide text is derived from it.
Outcome codes: y for active, n for inactive

{"Compound": "CCC(=O)OC1[C@@H]2CC3=C4CC(=O)O[C@@H](c5ccoc5)[C@]4(C)CCC3[C@@](C)(C2=O)[C@@H](CC(=O)OC)C1(C)C (stereo partly specified)", "Classification": "n"}
{"Compound": "CCCCCCCCCCCCCC(=O)OC1C(C)C2(O)C(C=C(CO)CC3(O)C(=O)C(C)=CC32)C2C(C)(C)C12OC(C)=O (stereo unspecified)", "Classification": "n"}
{"Compound": "O=C(O)C(O)C(O)C(O)C(O)C(=O)O (stereo unspecified)", "Classification": "n"}
{"Compound": "COc1ccc2oc(-c3ccccc3)c(OC)c(=O)c2c1", "Classification": "y"}
{"Compound": "CC(C)(S)[C@@H](N)C(=O)O", "Classification": "n"}
{"Compound": "COP(=S)(OC)Oc1ccc([N+](=O)[O-])cc1", "Classification": "n"}
{"Compound": "O=C(O)CCCCCCCC(=O)O", "Classification": "n"}
{"Compound": "CC(=O)O[C@H]1CC[C@@]2(C)C(C[C@@H](OC(C)=O)[C@]3(C)C2CC[C@@]2(C)[C@H](c4ccoc4)OC(=O)[C@H]4O[C@]423)C1(C)C (stereo partly specified)", "Classification": "n"}
{"Compound": "OC[C@H]1O[C@@H](n2cnc3c(NCc4ccco4)ncnc32)[C@H](O)[C@@H]1O", "Classification": "n"}
{"Compound": "CCCn1c(=O)c2[nH]c(C3CCCC3)nc2n(CCC)c1=O", "Classification": "n"}
{"Compound": "CC(=O)OCC(=O)[C@@]1(O)CCC2C3CCC4=CC(=O)C=CC4(C)C3[C@@H](O)C[C@@]21C (stereo partly specified)", "Classification": "n"}
{"Compound": "CN[C@@H]1C(OC2[C@H](O[C@H]3[C@H](O)[C@@H](O)[C@H](N=C(N)N)[C@@H](O)[C@@H]3N=C(N)N)OC(C)[C@]2(O)CO)OC(CO)C(O)C1O (stereo partly specified)", "Classification": "n"}
{"Compound": "CC(=O)N[C@@H](CC(=O)O)C(=O)N[C@@H](CCC(=O)O)C(=O)O (Ac-Asp-Glu-OH)", "Classification": "n"}
{"Compound": "C[C@]12CCC3c4ccc(O)cc4CCC3C1CCC2=O (stereo partly specified)", "Classification": "n"}
{"Compound": "O=NN(CCCl)C(=O)NCCCl", "Classification": "y"}
{"Compound": "NC(C(=O)O)C(O)C(=O)O (stereo unspecified)", "Classification": "n"}
{"Compound": "CC(=O)N[C@@H](CCC(=O)O)C(=O)O", "Classification": "n"}
{"Compound": "NCC[C@@H](O)C(=O)N[C@@H]1C[C@H](N)[C@@H](O[C@H]2O[C@H](CN)[C@@H](O)[C@H](O)[C@H]2O)[C@H](O)[C@H]1O[C@H]1O[C@H](CO)[C@@H](O)[C@H](N)C1O (stereo partly specified)", "Classification": "n"}
{"Compound": "CC(C)/C(O)=C1/C(=O)O[C@@H](c2ccoc2)[C@]2(C)C(O)[C@@H](O)[C@@]34OC5(C)OC67CC(C)(C(O)[C@]6(O)[C@@H](O)[C@]3(O5)C12)[C@H](CC(=O)O)[C@]74C (stereo partly specified)", "Classification": "n"}
{"Compound": "CC12CCC3C(=CCc4cc(O)ccc43)C1CCC2=O (stereo unspecified)", "Classification": "n"}
{"Compound": "COc1ccc2c(=O)c(OC)c(-c3ccccc3)oc2c1", "Classification": "y"}
{"Compound": "CC(=O)OC1CC(O)C(C)(C)C2CC(=O)C3(C)C(CCC4(C)C(c5ccoc5)OC(=O)C5OC543)C12C (stereo unspecified)", "Classification": "n"}
{"Compound": "O=c1oc2ccccc2cc1O", "Classification": "n"}
{"Compound": "COc1ccc(CCC(=O)c2c(O)cc(O[C@@H]3O[C@H](CO)C(O)[C@H](O)C3O[C@@H]3O[C@@H](C)[C@H](O)[C@@H](O)[C@H]3O)cc2O)cc1O (stereo partly specified)", "Classification": "n"}
{"Compound": "NCCCCC(=O)O", "Classification": "n"}
{"Compound": "CC(C)c1nc(N(C)S(C)(=O)=O)nc(-c2ccc(F)cc2)c1/C=C/[C@@H](O)C[C@@H](O)CC(=O)O", "Classification": "n"}
{"Compound": "CC(=O)O[C@@H]1CC2C(C)(C)C(=O)C3OC3[C@]2(C)C2CC[C@@]3(C)[C@H](c4ccoc4)OC(=O)C4OC43[C@@]21C (stereo partly specified)", "Classification": "n"}
{"Compound": "CC1OC(O[C@H]2/C=C/C=C/C=C/C=C/C=C/C=C/C=C/[C@H](C)[C@@H](O)[C@@H](C)[C@H](C)OC(=O)CC(O)CC(O)CCC(O)C(O)CC(O)C[C@]3(O)C[C@H](O)C(C(=O)O)C(C2)O3)C(O)[C@H](N)C1O (stereo partly specified)", "Classification": "n"}
{"Compound": "C[C@]12CCC3c4ccc(OC(=O)c5ccccc5)cc4CCC3C1CCC2=O (stereo partly specified)", "Classification": "n"}
{"Compound": "CCN1C[C@@]2(COC)C3[C@@H](OC)[C@H]4[C@@H]1[C@]3(C(OC)C[C@H]2O)C1C[C@@]2(O)[C@H](OC(=O)c3ccccc3)C1[C@]4(OC(C)=O)[C@@H](O)[C@@H]2OC (stereo partly specified)", "Classification": "n"}
{"Compound": "Fc1ccc([C@@H]2CCNC[C@H]2COc2ccc3c(c2)OCO3)cc1", "Classification": "n"}
{"Compound": "O=C1CCCCC/C=C/CCCCCCCCO1", "Classification": "n"}
{"Compound": "O=C(O)C(O)C(O)C(=O)O (stereo unspecified)", "Classification": "n"}
{"Compound": "C[C@]12CCC3c4ccc(OC(=O)CCC(=O)O)cc4CCC3C1CCC2=O (stereo partly specified)", "Classification": "n"}
{"Compound": "C[C@]12CCC3C(CC[C@H]4C[C@@H](O)CC[C@]34C)C1CC[C@@H]2O (stereo partly specified)", "Classification": "n"}
{"Compound": "CC1CCC(NC(=O)N(CCCl)N=O)CC1 (stereo unspecified)", "Classification": "y"}
